- Experimental target: human κ opioid receptor (Homo sapiens)
- Sequence (P41145 whole entry): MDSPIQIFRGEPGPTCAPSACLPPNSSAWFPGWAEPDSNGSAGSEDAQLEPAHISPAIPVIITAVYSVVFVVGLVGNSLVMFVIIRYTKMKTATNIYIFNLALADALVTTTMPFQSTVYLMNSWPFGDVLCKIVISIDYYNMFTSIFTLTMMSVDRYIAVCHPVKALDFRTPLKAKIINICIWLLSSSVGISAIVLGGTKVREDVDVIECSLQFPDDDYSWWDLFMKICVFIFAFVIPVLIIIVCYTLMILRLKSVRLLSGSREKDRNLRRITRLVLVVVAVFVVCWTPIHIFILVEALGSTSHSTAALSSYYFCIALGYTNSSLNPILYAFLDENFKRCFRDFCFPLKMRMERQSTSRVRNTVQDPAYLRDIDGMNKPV
- Assay protocol: [35S]GTPγS binding assay, intrinsic
- Format: biochemical

{"Compound": "CC1(c2cccc(O)c2)CCN(CCCc2ccccc2)CC1", "Experimental target": "human κ opioid receptor (Homo sapiens)", "agonist activity at 10 μM, κ receptor": "no agonist efficacy"}
{"Compound": "Oc1cccc(C2CCN(CCCc3ccccc3)CC2)c1", "Experimental target": "human κ opioid receptor (Homo sapiens)", "agonist activity at 10 μM, κ receptor": "no agonist efficacy"}
{"Compound": "CC1CN(CCCc2ccccc2)CCC1c1cccc(O)c1 (stereo not drawn)", "Experimental target": "human κ opioid receptor (Homo sapiens)", "agonist activity at 10 μM, κ receptor": "no agonist efficacy"}

###

Listing of entries alongside the reported Kb.
- Experimental target: UniProt:P41143
- Assay protocol: Inhibition of DPDPE-stimulated [35S]GTPγS binding
- Assay type: biochemical
All answers are understood in nM, so give the number only.

Study these solved cases before continuing.
{"Compound": "CC1CN(CCCc2ccccc2)CCC1c1cccc(O)c1 (stereo not shown)", "Experimental target": "UniProt:P41143", "Measure name": "Kb", "Experimental result": 46}
{"Compound": "CC1(c2cccc(O)c2)CCN(CCCc2ccccc2)CC1", "Experimental target": "UniProt:P41143", "Measure name": "Kb", "Experimental result": 178}
{"Compound": "CN1CCN(c2cccc(O)c2)CC1", "Experimental target": "UniProt:P41143", "Measure name": "Kb", "Experimental result": 1600}

Next compound, please.
The reported value for Oc1cccc(C2CCN(CCCc3ccccc3)CC2)c1 in terms of Kb is 418

###

Kb for assorted compounds
- Experimental target: human κ opioid receptor (Homo sapiens)
- Assay protocol: Inhibition of U69,593-stimulated [35S]GTPγS binding
- Type: biochemical
Kindly provide the numeric value in nM only, without the unit symbol.

{"Compound": "CN1CCC(C)(c2cccc(O)c2)CC1 [Compound 6a, 3-(1,4-Dimethylpiperidin-4-yl)phenol]", "Unit tag": "nM", "Kb": 477}

In plain terms, C[C@H]1CN(CCCc2ccccc2)CC[C@@]1(C)c1cccc(O)c1 [Compound 2b] has a documented Kb of 0.88

Lab book: Kb of CC1(c2cccc(O)c2)CCN(CCCc2ccccc2)CC1 [Compound 6b] noted as 21.3

Kb in this record for C[C@H]1CN(C)CC[C@@]1(C)c1cccc(O)c1 [Compound 2a] : 134

Per the record, Oc1cccc(N2CCN(CCCc3ccccc3)CC2)c1 [Compound 8b] has Kb of 36.8

###

Overview of recorded Kb for various compounds
- Experimental target: human κ opioid receptor (Homo sapiens)
- Assay protocol: Inhibition of U69,593-stimulated [35S]GTPγS binding
- Type: biochemical
Report the figure in nM without appending any unit label.

Here are 3 compounds together with their reported answers.
{"Compound": "Oc1cccc(C2CCN(CCCc3ccccc3)CC2)c1 [Compound 7b]", "Unit tag": "nM", "Kb": 5.8}
{"Compound": "CC1CN(CCCc2ccccc2)CCC1c1cccc(O)c1 (stereo not shown) [Compound 5b]", "Unit tag": "nM", "Kb": 16.5}
{"Compound": "CC1CN(C)CCC1c1cccc(O)c1 (stereo not shown) [Compound 5a, 3-(1,3-Dimethylpiperidin-4-yl)phenol]", "Unit tag": "nM", "Kb": 1310}

Summary for this compound, CN1CCC(c2cccc(O)c2)CC1 [Compound 7a, 3-(1-Methylpiperidin-4-yl)phenol] : Kb is 2700

###

- Experimental target: human δ opioid receptor (Homo sapiens, UniProt P41143)
- Sequence (P41143 whole entry): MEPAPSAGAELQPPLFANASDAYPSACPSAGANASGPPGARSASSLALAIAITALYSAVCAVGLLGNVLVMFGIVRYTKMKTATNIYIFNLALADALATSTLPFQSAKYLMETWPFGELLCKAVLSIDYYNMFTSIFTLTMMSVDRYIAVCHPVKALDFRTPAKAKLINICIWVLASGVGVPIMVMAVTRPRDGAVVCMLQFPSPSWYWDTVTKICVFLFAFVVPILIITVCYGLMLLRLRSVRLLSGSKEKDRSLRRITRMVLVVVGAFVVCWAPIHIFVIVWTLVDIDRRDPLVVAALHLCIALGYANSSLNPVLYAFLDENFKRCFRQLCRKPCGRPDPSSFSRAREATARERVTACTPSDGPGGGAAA
- Assay protocol: [35S]GTPγS binding assay, intrinsic
Measure name: pEC50
Convention used: pEC50 is expressed as -log10 of the molar concentration.

Sample CN1CCC(C)(c2cccc(O)c2)CC1 ; pEC50 observed: 5.08

###

- Experimental target: human δ opioid receptor (Homo sapiens)
- Assay protocol: [35S]GTPγS binding assay, intrinsic
- Assay type: biochemical
- Measurement parameters: 10 μM

{"Molecule": "CC1(c2cccc(O)c2)CCN(CCCc2ccccc2)CC1", "agonist activity at 10 μM, δ receptor": "no agonist efficacy"}
{"Molecule": "CC1CN(CCCc2ccccc2)CCC1c1cccc(O)c1 (stereo not drawn)", "agonist activity at 10 μM, δ receptor": "no agonist efficacy"}
{"Molecule": "Oc1cccc(C2CCN(CCCc3ccccc3)CC2)c1", "agonist activity at 10 μM, δ receptor": "no agonist efficacy"}

###

- Experimental target: human μ opioid receptor (Homo sapiens)
- Sequence (P35372 whole entry): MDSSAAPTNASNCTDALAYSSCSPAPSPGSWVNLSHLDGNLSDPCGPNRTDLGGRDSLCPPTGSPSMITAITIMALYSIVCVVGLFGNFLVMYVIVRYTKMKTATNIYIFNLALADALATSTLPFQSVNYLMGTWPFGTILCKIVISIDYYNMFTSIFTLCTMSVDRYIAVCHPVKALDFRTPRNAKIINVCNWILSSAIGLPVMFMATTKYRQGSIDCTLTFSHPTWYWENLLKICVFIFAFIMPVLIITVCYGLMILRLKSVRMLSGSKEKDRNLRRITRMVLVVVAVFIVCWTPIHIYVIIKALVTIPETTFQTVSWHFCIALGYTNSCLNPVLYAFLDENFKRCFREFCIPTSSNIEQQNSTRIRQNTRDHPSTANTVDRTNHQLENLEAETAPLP
- Assay protocol: Inhibition of DAMGO-stimulated [35S]GTPγS binding
- Type: biochemical
Readings of log10 Kb for the listed compounds
Kindly note that the scale is log10 and the underlying Kb is in nM.

Sample records with log10 Kb:
{"Compound": "CN1CCN(c2cccc(O)c2)CC1", "Measure name": "log10 Kb", "Experimental result": 3.63}
{"Compound": "CC1CN(C)CCC1c1cccc(O)c1 (stereo not drawn)", "Measure name": "log10 Kb", "Experimental result": 3.10}
{"Compound": "CN1CCC(C)(c2cccc(O)c2)CC1", "Measure name": "log10 Kb", "Experimental result": 2.99}
{"Compound": "CC1(c2cccc(O)c2)CCN(CCCc2ccccc2)CC1", "Measure name": "log10 Kb", "Experimental result": 0.74}
{"Compound": "CC1CN(CCCc2ccccc2)CCC1c1cccc(O)c1 (stereo not drawn)", "Measure name": "log10 Kb", "Experimental result": 1.08}

Would you kindly look at the next entry?
Value of measured log10 Kb for the entry Oc1cccc(C2CCN(CCCc3ccccc3)CC2)c1 : 1.88

###

- Experimental target: UniProt:P35372
- Assay protocol: [35S]GTPγS binding assay, intrinsic
- Format: biochemical
Measure name: agonist activity at 10 μM, μ receptor

{"Compound": "CC1CN(CCCc2ccccc2)CCC1c1cccc(O)c1 (stereo not shown)", "Experimental result": "no agonist efficacy"}
{"Compound": "Oc1cccc(C2CCN(CCCc3ccccc3)CC2)c1", "Experimental result": "no agonist efficacy"}
